B1: PCMTD2 (parent)
chain: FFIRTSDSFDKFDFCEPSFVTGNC

# Variants of: B1
# Test Description: protein stability index of a GFP-peptide fusion (GPS, HEK-293T) (PSI 1-6); higher = more stable;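 note: lentivirally expressed fusions sorted by FACS into six bins by GFP to DsRed ratio, PSI derived from sequencing read proportions per bin multiplied by bin number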
# Recorded Conditions: c terminus: a fixed tail appended
Property: protein stability index
Answers are plain numbers.

Provide each entry's protein stability index from the list below.
1. FFIRTSDSFDKFDFCEPSHVTGNC [F19H]
2. FFQRTSDSFDKFDFCEPSFVTGNC [I3Q]

result:
1: 1.25; 2: 1.96

Provide each entry's protein stability index from the list below.
1. VFIRTSDSFDKFDFCEPSFVTGNC [F1V]
2. FFIRKSDSFDKFDFCEPSFVTGNC [T5K]
3. FFIRTSDSFDKFDFCEPSFVTSNC [G22S]
4. EFIRTSDSFDKFDFCEPSFVTGNC [F1E]
5. FFIRTSDSFDKFDFCEPSFVTRNC [G22R]
6. FFIRTSDSFDKLDFCEPSFVTGNC [F12L]
7. FHIRTSDSFDKFDFCEPSFVTGNC [F2H]

result:
2.15
2.38
2.07
1.97
1.87
3.58
1.89

Provide each entry's protein stability index from the list below.
1. FFIRTEDSFDKFDFCEPSFVTGNC [S6E]
2. FFIRTSDSCDKFDFCEPSFVTGNC [F9C]
3. FFIRTSDSFDKFDFCESSFVTGNC [P17S]

result:
1.99
2.04
2.03

Provide each entry's protein stability index from the list below.
1. CFIRTSDSFDKFDFCEPSFVTGNC [F1C]
2. FFIRTSDSFDEFDFCEPSFVTGNC [K11E]
3. FFIRTSDRFDKFDFCEPSFVTGNC [S8R]
4. FFKRTSDSFDKFDFCEPSFVTGNC [I3K]
5. FFIRTSDSFDKFDCCEPSFVTGNC [F14C]
6. TFIRTSDSFDKFDFCEPSFVTGNC [F1T]
7. FFARTSDSFDKFDFCEPSFVTGNC [I3A]
8. FFIRTSDSFDKFDMCEPSFVTGNC [F14M]

result:
1: 2.93; 2: 2.95; 3: 2.44; 4: 2.07; 5: 2.76; 6: 1.8; 7: 1.55; 8: 2.1

Provide each entry's protein stability index from the list below.
1. FFIQTSDSFDKFDFCEPSFVTGNC [R4Q]
2. FFIRTSDSFDFFDFCEPSFVTGNC [K11F]

result:
1: 1.74; 2: 3.16
